The values you see were collected from ChEMBL document CHEMBL1133325.

Consider the following Ki values measured on Corticotropin-releasing factor receptor 1 (Rattus norvegicus).
Sequence (P35353 whole entry): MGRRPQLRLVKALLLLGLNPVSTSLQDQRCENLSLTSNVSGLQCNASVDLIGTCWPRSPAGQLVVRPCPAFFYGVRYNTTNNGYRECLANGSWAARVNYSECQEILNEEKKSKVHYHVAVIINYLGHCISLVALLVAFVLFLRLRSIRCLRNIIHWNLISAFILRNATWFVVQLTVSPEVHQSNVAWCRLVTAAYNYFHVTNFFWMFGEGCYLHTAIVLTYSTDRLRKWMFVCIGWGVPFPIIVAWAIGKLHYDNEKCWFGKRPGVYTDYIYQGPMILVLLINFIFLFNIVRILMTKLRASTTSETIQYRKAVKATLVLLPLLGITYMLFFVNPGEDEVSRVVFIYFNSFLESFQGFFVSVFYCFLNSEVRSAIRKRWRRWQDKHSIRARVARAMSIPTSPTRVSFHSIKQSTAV
property: Ki (nM)

CCCCN(CC)c1nc(C)nc2c1c(C)c(C)n2-c1c(C)cc(C)cc1C [ANTALARMIN] = 2.5

(A) CCCN(CC1CC1)c1nc(C)nc2c1c(C)c(C)n2-c1c(C)cc(C)cc1C
(B) CCCCN(CCCCF)c1nc(C)nc2c1c(C)c(C)n2-c1c(C)cc(C)cc1C
Incoming: Please indicate which entry, A or B , has the lower recorded Ki value. Lab note: record the label of whichever item you select.
Outgoing: A
